# Test system: PC-3 PIP/flu tumor-bearing mice
# procedure_details: Biodistribution studies in PC-3 PIP/flu tumor-bearing mice
# measurement_setup: 24 h p.i.
Rule: Kidneys below 20 % IA/g gives met, anything at or above gives not met.

molecule	test_target	label_class
O=C(O)CCC(NC(=O)NC(CCCCNC(=O)C(Cc1ccc2ccccc2c1)NC(=O)C1CCC(n2cc(CC(NC(=O)CN3CCN(CC(=O)O)CCN(CC(=O)O)CCN(CC(=O)O)CC3)C(=O)NC(CCCCNC(=O)CCCc3ccc(I)cc3)C(=O)O)nn2)CC1)C(=O)O)C(=O)O (stereo not shown) [^177Lu-PSMA-ALB-01, metal not drawn]	PC-3 PIP/flu tumor-bearing mice	not met
O=C(O)CCC(NC(=O)NC(CCCCNC(=O)C(Cc1ccc2ccccc2c1)NC(=O)C1CCC(CNC(=O)C(CCCCNC(=O)CN2CCN(CC(=O)O)CCN(CC(=O)O)CCN(CC(=O)O)CC2)NC(=O)CC(NC(=O)CC(NC(=O)CC(NC(=O)CCCc2ccc(I)cc2)C(=O)O)C(=O)O)C(=O)O)CC1)C(=O)O)C(=O)O (stereo not shown) [^177Lu-PSMA-ALB-07, metal not drawn]	PC-3 PIP/flu tumor-bearing mice	not met
O=C([O-])CN1CCN(CC(=O)[O-])CCN(CC(=O)NCC2CCC(C(=O)N[C@@H](Cc3ccc4ccccc4c3)C(=O)NCCCC[C@H](NC(=O)N[C@@H](CCC(=O)O)C(=O)O)C(=O)O)CC2)CCN(CC(=O)[O-])CC1.[177Lu+3] (stereo partly shown) [^177Lu-PSMA-617, reference compound]	PC-3 PIP/flu tumor-bearing mice	met
Cc1ccc(CCCC(=O)NC(CC(=O)NC(CC(=O)NC(CC(=O)NC(CCCCNC(=O)CN2CCN(CC(=O)O)CCN(CC(=O)O)CCN(CC(=O)O)CC2)C(=O)NCC2CCC(C(=O)NC(Cc3ccc4ccccc4c3)C(=O)NCCCCC(NC(=O)NC(CCC(=O)O)C(=O)O)C(=O)O)CC2)C(=O)O)C(=O)O)C(=O)O)cc1 (stereo not shown) [^177Lu-PSMA-ALB-08, metal not drawn]	PC-3 PIP/flu tumor-bearing mice	met
O=C(O)CCC(NC(=O)NC(CCCCNC(=O)C(Cc1ccc2ccccc2c1)NC(=O)C1CCC(CNC(=O)C(CCCCNC(=O)CCCc2ccc(I)cc2)NC(=O)CN2CCN(CC(=O)O)CCN(CC(=O)O)CCN(CC(=O)O)CC2)CC1)C(=O)O)C(=O)O (stereo not shown) [^177Lu-PSMA-ALB-03, metal not drawn]	PC-3 PIP/flu tumor-bearing mice	not met
O=C(O)CCC(NC(=O)NC(CCCCNC(=O)C(Cc1ccc2ccccc2c1)NC(=O)C1CCC(CNC(=O)C(CCCCNC(=O)CN2CCN(CC(=O)O)CCN(CC(=O)O)CCN(CC(=O)O)CC2)NC(=O)CCCCCCC(=O)NC(CCCCNC(=O)CCCc2ccc(I)cc2)C(=O)O)CC1)C(=O)O)C(=O)O (stereo not shown) [^177Lu-PSMA-ALB-04, metal not drawn]	PC-3 PIP/flu tumor-bearing mice	not met
O=C(O)CCC(NC(=O)NC(CCCCNC(=O)C(Cc1ccc2ccccc2c1)NC(=O)C1CCC(CNC(=O)C(CCCCNC(=O)CN2CCN(CC(=O)O)CCN(CC(=O)O)CCN(CC(=O)O)CC2)NC(=O)CC(NC(=O)CC(NC(=O)CCCc2ccc(I)cc2)C(=O)O)C(=O)O)CC1)C(=O)O)C(=O)O (stereo not shown) [^177Lu-PSMA-ALB-05, metal not drawn]	PC-3 PIP/flu tumor-bearing mice	not met

----------
Item-by-item account of Tumor-to-kidney
# Tested on: PC-3 PIP/flu tumor-bearing mice
# procedure_details: Biodistribution studies in PC-3 PIP/flu tumor-bearing mice
# measurement_setup: 192 h p.i.; PC-3 PIP tumor
measured_attribute: Tumor-to-kidney

compound	measured_attribute	value_measured
O=C(O)CCC(NC(=O)NC(CCCCNC(=O)C(Cc1ccc2ccccc2c1)NC(=O)C1CCC(n2cc(CC(NC(=O)CN3CCN(CC(=O)O)CCN(CC(=O)O)CCN(CC(=O)O)CC3)C(=O)NC(CCCCNC(=O)CCCc3ccc(I)cc3)C(=O)O)nn2)CC1)C(=O)O)C(=O)O (stereo not shown) [^177Lu-PSMA-ALB-01, metal not drawn]	Tumor-to-kidney	9.87 ± 1.05
O=C(O)CCC(NC(=O)NC(CCCCNC(=O)C(Cc1ccc2ccccc2c1)NC(=O)C1CCC(CNC(=O)C(CCCCNC(=O)CCCc2ccc(I)cc2)NC(=O)CN2CCN(CC(=O)O)CCN(CC(=O)O)CCN(CC(=O)O)CC2)CC1)C(=O)O)C(=O)O (stereo not shown) [^177Lu-PSMA-ALB-03, metal not drawn]	Tumor-to-kidney	7.97 ± 0.70
O=C(O)CCC(NC(=O)NC(CCCCNC(=O)C(Cc1ccc2ccccc2c1)NC(=O)C1CCC(CNC(=O)C(CCCCNC(=O)CN2CCN(CC(=O)O)CCN(CC(=O)O)CCN(CC(=O)O)CC2)NC(=O)CC(NC(=O)CC(NC(=O)CCCc2ccc(I)cc2)C(=O)O)C(=O)O)CC1)C(=O)O)C(=O)O (stereo not shown) [^177Lu-PSMA-ALB-05, metal not drawn]	Tumor-to-kidney	10.4 ± 0.25
O=C(O)CCC(NC(=O)NC(CCCCNC(=O)C(Cc1ccc2ccccc2c1)NC(=O)C1CCC(CNC(=O)C(CCCCNC(=O)CN2CCN(CC(=O)O)CCN(CC(=O)O)CCN(CC(=O)O)CC2)NC(=O)CCCCCCC(=O)NC(CCCCNC(=O)CCCc2ccc(I)cc2)C(=O)O)CC1)C(=O)O)C(=O)O (stereo not shown) [^177Lu-PSMA-ALB-04, metal not drawn]	Tumor-to-kidney	6.91 ± 2.24

----------
# System: PC-3 PIP/flu tumor-bearing mice
# procedure_details: Biodistribution studies in PC-3 PIP/flu tumor-bearing mice
# measurement_setup: 48 h p.i.

molecule	Bone (% IA/g)
O=C(O)CCC(NC(=O)NC(CCCCNC(=O)C(Cc1ccc2ccccc2c1)NC(=O)C1CCC(CNC(=O)C(CCCCNC(=O)CCCc2ccc(I)cc2)NC(=O)CN2CCN(CC(=O)O)CCN(CC(=O)O)CCN(CC(=O)O)CC2)CC1)C(=O)O)C(=O)O (stereo not shown) [^177Lu-PSMA-ALB-03, metal not drawn]	1.63
O=C(O)CCC(NC(=O)NC(CCCCNC(=O)C(Cc1ccc2ccccc2c1)NC(=O)C1CCC(CNC(=O)C(CCCCNC(=O)CN2CCN(CC(=O)O)CCN(CC(=O)O)CCN(CC(=O)O)CC2)NC(=O)CCCCCCC(=O)NC(CCCCNC(=O)CCCc2ccc(I)cc2)C(=O)O)CC1)C(=O)O)C(=O)O (stereo not shown) [^177Lu-PSMA-ALB-04, metal not drawn]	6.80
O=C(O)CCC(NC(=O)NC(CCCCNC(=O)C(Cc1ccc2ccccc2c1)NC(=O)C1CCC(n2cc(CC(NC(=O)CN3CCN(CC(=O)O)CCN(CC(=O)O)CCN(CC(=O)O)CC3)C(=O)NC(CCCCNC(=O)CCCc3ccc(I)cc3)C(=O)O)nn2)CC1)C(=O)O)C(=O)O (stereo not shown) [^177Lu-PSMA-ALB-01, metal not drawn]	1.64
O=C(O)CCC(NC(=O)NC(CCCCNC(=O)C(Cc1ccc2ccccc2c1)NC(=O)C1CCC(CNC(=O)C(CCCCNC(=O)CN2CCN(CC(=O)O)CCN(CC(=O)O)CCN(CC(=O)O)CC2)NC(=O)CC(NC(=O)CC(NC(=O)CCCc2ccc(I)cc2)C(=O)O)C(=O)O)CC1)C(=O)O)C(=O)O (stereo not shown) [^177Lu-PSMA-ALB-05, metal not drawn]	0.28

----------
The entries below come with measured Bone values attached.
# Test system: PC-3 PIP/flu tumor-bearing mice
# procedure_details: Biodistribution studies in PC-3 PIP/flu tumor-bearing mice
# measurement_setup: 4 h p.i.

compound	test_target	Bone, % IA/g
O=C(O)CCC(NC(=O)NC(CCCCNC(=O)C(Cc1ccc2ccccc2c1)NC(=O)C1CCC(CNC(=O)C(CCCCNC(=O)CN2CCN(CC(=O)O)CCN(CC(=O)O)CCN(CC(=O)O)CC2)NC(=O)CC(NC(=O)CC(NC(=O)CC(NC(=O)CCCc2ccc(I)cc2)C(=O)O)C(=O)O)C(=O)O)CC1)C(=O)O)C(=O)O (stereo not drawn) [^177Lu-PSMA-ALB-07, metal not drawn]	PC-3 PIP/flu tumor-bearing mice	1.30
Cc1ccc(CCCC(=O)NCCCCC(NC(=O)CN2CCN(CC(=O)O)CCN(CC(=O)O)CCN(CC(=O)O)CC2)C(=O)NCC2CCC(C(=O)NC(Cc3ccc4ccccc4c3)C(=O)NCCCCC(NC(=O)NC(CCC(=O)O)C(=O)O)C(=O)O)CC2)cc1 (stereo not drawn) [44Sc-PSMA-ALB-06, metal not drawn]	PC-3 PIP/flu tumor-bearing mice	2.50
O=C(O)CCC(NC(=O)NC(CCCCNC(=O)C(Cc1ccc2ccccc2c1)NC(=O)C1CCC(n2cc(CC(NC(=O)CN3CCN(CC(=O)O)CCN(CC(=O)O)CCN(CC(=O)O)CC3)C(=O)NC(CCCCNC(=O)CCCc3ccc(I)cc3)C(=O)O)nn2)CC1)C(=O)O)C(=O)O (stereo not drawn) [^177Lu-PSMA-ALB-01, metal not drawn]	PC-3 PIP/flu tumor-bearing mice	3.01

Each recorded value in this set is attributed to patent US11629201B2.
